Tested on: CCRIS mutagenicity, Ames/micronucleus/aberration tests
Assay: CCRIS mutagenicity studies
Conditions: Test System: AMES SALMONELLA TYPHIMURIUM; Strain/Indicator: TA102; Metabolic Activation: NONE; Method: STANDARD PLATE
Active and inactive are the calls of the source. How the calls were made is not given here.
Entry note: the call must match one of True = active, False = inactive

Answered cases to consult:
smilesInput: Cc1c(N)nc([C@H](CC(N)=O)NC[C@H](N)C(N)=O)nc1C(=O)N[C@H](C(=O)N[C@H](C)[C@@H](O)[C@H](C)C(=O)N[C@H](C(=O)NCCc1nc(-c2nc(C(=O)NCCCN[C@@H](C)c3ccccc3)cs2)cs1)[C@@H](C)O)[C@@H](O[C@@H]1O[C@@H](CO)[C@@H](O)[C@H](O)[C@@H]1O[C@H]1O[C@H](CO)[C@@H](O)[C@H](OC(N)=O)[C@@H]1O)c1cnc[nH]1
system: CCRIS mutagenicity, Ames/micronucleus/aberration tests
qualitativeLabel: True
//
smilesInput: CC(=O)c1cc(C(C)(C)C)cc2c1CCC2(C)C
system: CCRIS mutagenicity, Ames/micronucleus/aberration tests
qualitativeLabel: False
//
smilesInput: NCCc1cc(O)c(O)cc1O
system: CCRIS mutagenicity, Ames/micronucleus/aberration tests
qualitativeLabel: True
//
smilesInput: C[C@@H]1O[C@@H](O[C@H]2[C@H](O[C@H]3[C@H](O[C@H]4CC[C@@]5(C)[C@@H](CC[C@]6(C)[C@@H]5CC=C5[C@@H]7CC(C)(C)C[C@@H](O)[C@]7(C)CC[C@]56C)[C@@]4(C)CO)O[C@H](C(=O)O)[C@@H](O)[C@@H]3O)O[C@H](CO)[C@H](O)[C@@H]2O)[C@H](O)[C@H](O)[C@H]1O
system: CCRIS mutagenicity, Ames/micronucleus/aberration tests
qualitativeLabel: False

Turning now to a further record.
Call for entry ClC1=C(Cl)[C@]2(Cl)[C@H]3[C@H]([C@@H]4C=C[C@H]3C4)[C@@]1(Cl)C2(Cl)Cl :
False
